These data points were gathered from PubChem BioAssay (NCI).

growth by entry:
System: SN12C renal
Experiment: NCI-60 one-dose screen, 48 h (100 = growth as untreated, 0 = no growth, -100 = all killed)
Conditions: 10 µM unless noted
The panel holds about 83,000 compounds, 20% with a hit somewhere; the sample as a whole holds those more often. The source made the active and inactive calls. Rule for the calls: active = growth percent below 10; inactive = the rest.

Cc1ccc2c(n1)C(=O)C(Cl)=C(Nc1cccc(C(F)(F)F)c1)C2=O :: 85.8% (inactive)

input: Entry CC(=O)/C(N=Nc1ccc2oc(=O)ccc2c1)=C(\C)O , system SN12C renal: what growth was measured?
output: 35.6% (inactive)

input: Form entry - test system: SN12C renal; read-out: growth; compound: CCN(CC)S(=O)(=O)c1ccc(-c2nc(C(Cl)Cl)nc3cc(C)nn23)cc1
output: 58.6% (inactive)
